system: Vero E6 infected with SARS-CoV-2; experiment: morphology score (similarity to uninfected cells); higher = more like uninfected cells; conditions: 24 h
So basically: morphology score at 0.08 or higher? That is true. Lower than 0.08? That is false.

| molecule | classification |
| --- | --- |
| Cc1c(O)c(=O)n(-c2ccccc2)n1C [4-hydroxy-phenazone] (10 µM) | false |
| NC1CCN(c2c(F)cc3c(=O)c(C(=O)O)cn(C4CC4)c3c2Cl)C1 (configuration not stated) [clinafloxacin] (10 µM) | true |
| O=c1[nH]c(=O)n([C@H]2C[C@H](O)[C@@H](CO)O2)cc1C(F)(F)F [trifluridine] (0.833333 µM) | true |
| Nc1ncnc2c1ncn2[C@@H]1O[C@H](C[C@@H](N)CC[C@H](N)C(=O)O)[C@@H](O)[C@H]1O [sinefungin] (10 µM) | true |

Determine whether measured morphology score meets or exceeds 0.08 for NC(=O)c1[nH]cnc1O (10 µM) false

Determine whether measured morphology score meets or exceeds 0.08 for CC(C)OC(=O)N1CCC(Oc2ncnc3c2cnn3-c2ccc(S(C)(=O)=O)cc2F)CC1 (10 µM) false

Determine whether measured morphology score meets or exceeds 0.08 for C=CCNc1nc(NCC=C)nc(N2CCN(C(c3ccc(F)cc3)c3ccc(F)cc3)CC2)n1 [almitrine] (10 µM) true
